Documented Papp A→B at 2 h across a set of compounds
- assayProcedure: Permeability from apical to basolateral side of human Caco2 cells after 120 mins
- assayConditions: Caco-2
Reply numerically in nm/s, unit not repeated.

compound: Cn1c(N2CCCN(CCCN3c4cc(C(=O)O)ccc4COc4ccccc43)CC2)cc(=O)n(C)c1=O
measurementUnit: nm/s
Papp A→B at 2 h: 16
--
compound: Cn1c(N2CCCN(CCCN3c4ccccc4CCc4ccc(C(C)(C)C(=O)O)cc43)CC2)cc(=O)n(C)c1=O
measurementUnit: nm/s
Papp A→B at 2 h: 70
--
compound: Cn1c(N2CCCN(CCCN3c4ccccc4CCc4ccc(CC(=O)O)cc43)CC2)cc(=O)n(C)c1=O
measurementUnit: nm/s
Papp A→B at 2 h: 26
--
compound: Cn1c(N2CCCN(CC/C=C3/c4ccccc4CCc4ccc(CC(=O)O)cc43)CC2)cc(=O)n(C)c1=O
measurementUnit: nm/s
Papp A→B at 2 h: 48
--
compound: Cn1c(N2CCCN(CCCN3c4ccccc4COc4ccc(CC(=O)O)cc43)CC2)cc(=O)n(C)c1=O
measurementUnit: nm/s
Papp A→B at 2 h: 16
--
compound: CC(C(=O)O)c1ccc2c(c1)N(CCCN1CCCN(c3cc(=O)n(C)c(=O)n3C)CC1)c1ccccc1CO2 (stereo unspecified)
measurementUnit: nm/s
Papp A→B at 2 h: 19

Any idea what Papp A→B at 2 h was measured for Cn1c(N2CCN(CC/C=C3/c4ccccc4CCc4ccc(CC(=O)O)cc43)CC2)cc(=O)n(C)c1=O ?
147

// query Papp A→B at 2 h value for entry Cn1c(N2CCCN(CC/C=C3/c4ccccc4CCc4ccc(C(=O)O)cc43)CC2)cc(=O)n(C)c1=O
69

* * *

- targetSystem: Histamine H1 receptor (Homo sapiens)
- Sequence (P35367 whole entry): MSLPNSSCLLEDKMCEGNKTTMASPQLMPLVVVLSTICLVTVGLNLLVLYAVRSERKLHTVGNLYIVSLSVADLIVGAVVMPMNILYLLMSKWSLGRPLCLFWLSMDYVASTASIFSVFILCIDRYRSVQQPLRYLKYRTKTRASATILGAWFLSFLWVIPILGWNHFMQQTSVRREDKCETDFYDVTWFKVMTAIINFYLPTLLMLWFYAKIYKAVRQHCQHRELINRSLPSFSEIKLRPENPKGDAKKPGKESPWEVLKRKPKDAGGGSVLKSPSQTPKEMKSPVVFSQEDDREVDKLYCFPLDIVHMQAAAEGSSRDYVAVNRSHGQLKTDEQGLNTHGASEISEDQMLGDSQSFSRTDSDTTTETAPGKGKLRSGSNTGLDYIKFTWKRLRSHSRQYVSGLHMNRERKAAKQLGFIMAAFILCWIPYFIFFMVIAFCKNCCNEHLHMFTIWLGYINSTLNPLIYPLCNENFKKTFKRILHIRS
- assayProcedure: Displacement of [3H]pyrilamine from human histamine H1 receptor expressed in CHO-K1 cells after 60 mins by scintillation counting
pIC50: −log10 of the molar value.
Rule: pIC50 of 7 or more gives true (1); anything lower gives false (0).

Example entries begin here.
sampleSmiles: Cn1c(N2CCN(CC/C=C3/c4ccccc4COc4ccc(C(=O)O)cc43)CC2)cc(=O)n(C)c1=O
targetSystem: Histamine H1 receptor (Homo sapiens)
categoryLabel: false (0)
//
sampleSmiles: Cn1c(N2CCN(CC/C=C3/c4ccccc4CCc4ccc(CC(=O)O)cc43)CC2)cc(=O)n(C)c1=O
targetSystem: Histamine H1 receptor (Homo sapiens)
categoryLabel: false (0)
//
sampleSmiles: Cn1c(N2CCCN(CCCN3c4ccccc4CCc4ccc(CC(=O)O)cc43)CC2)cc(=O)n(C)c1=O
targetSystem: Histamine H1 receptor (Homo sapiens)
categoryLabel: true (1)

Does the molecule Cn1c(N2CCCN(CCCN3c4ccccc4COc4ccc(C(=O)O)cc43)CC2)cc(=O)n(C)c1=O have recorded pIC50 that is 7 or more?
true (1)

hey, is pIC50 for this one >= 7? Cn1c(N2CCN(CCCN3c4ccccc4COc4ccc(CC(=O)O)cc43)CC2)cc(=O)n(C)c1=O
false (0)

Kindly determine if pIC50 recorded for Cn1c(N2CCN(CC/C=C3\c4ccccc4COc4ccc(CC(=O)O)cc43)CC2)cc(=O)n(C)c1=O is above or exactly 7.
false (0)

Form field: pIC50 at least 7? Entry: Cn1c(N2CCCN(CCCN3c4cc(C(=O)O)ccc4COc4ccccc43)CC2)cc(=O)n(C)c1=O
false (0)
